System: T-47D breast
PROTOCOL SUMMARY: NCI tumour cell line growth inhibition, 48 h
OBSERVABLE: TGI (µM)
# value in µM; strip the unit string

Below are worked cases with known answers.
[[record]]
compound = "CN(C)CC(C(=O)c1ccccc1)c1ccccc1 (stereo unspecified)"
numeric_value = 5.73

[[record]]
compound = "CC1=C(N2CC2)C(=O)C(CO)=C(N2CC2)C1=O"
numeric_value = 0.529


API: the following record is the query input.
The compound listed as "C/C(Cl)=N\OC(=O)Nc1ccc([N+](=O)[O-])cc1" shows TGI equal to 36.8

====

Catalogue of log10(TGI) values
Test system: SK-MEL-5 melanoma
PROTOCOL SUMMARY: NCI tumour cell line growth inhibition, 48 h
Plainly stated, the numbers are log10 of TGI given in µM.

Entry "C=CCn1c2ccccc2c2c(C)c3cnccc3c(C)c21" : log10(TGI) on SK-MEL-5 melanoma = 1.76

Entry "CC(C)(C)OC(=O)N1C(C2=COc3ccccc3O2)=COc2ccccc21" : log10(TGI) on SK-MEL-5 melanoma = 1.81

Entry "COc1cc(/C=C/C(=O)C(=Cc2ccc(F)c(F)c2)C(=O)/C=C/c2ccc(O)c(OC)c2)ccc1O" : log10(TGI) on SK-MEL-5 melanoma = 0.72

Entry C=CCN1C(=O)/C(=c2\sc3n(c2=O)C2C(NN=3)N(CC)C(=O)N2CC)c2ccccc21 (centres undefined) : log10(TGI) on SK-MEL-5 melanoma = 0.31

Entry "COC(=O)[C@]12CC[C@@H](C)[C@H](C)[C@@H]1C1=CC[C@@H]3[C@@]4(C)C[C@@H](OC(=O)c5ccco5)[C@H](O)[C@@](C)(CO)[C@@H]4[C@H](O)C[C@@]3(C)[C@]1(C)CC2" : log10(TGI) on SK-MEL-5 melanoma = 0.61

====

Catalogue of TGI values
Test system: EKVX NSCLC
PROTOCOL SUMMARY: NCI tumour cell line growth inhibition, 48 h

Below are worked cases with known answers.
[[record]]
compound = "COc1cccc(Nc2nc(NNC(=O)Cc3ccccc3)nc(NNC(=O)c3ccncc3)n2)c1"
result = "> 100 µM"

[[record]]
compound = "CCCNc1nc(N(C)O)nc(N(C)O)n1"
result = "> 100 µM"

[[record]]
compound = "CN1CN(c2ccccc2)C2(CCNCC2)C1=O"
result = "> 100 µM"

[[record]]
compound = "CN(CCCNC(=O)c1cn(C)c2c1ccc1cc(Cl)ccc12)CCCNC(=O)c1cn(C)c2c1ccc1cc(Cl)ccc12"
result = "> 100 µM"

[[record]]
compound = "CC(/C=C/c1ncccc1OCCCCCC(=O)O)=N\\NC1=NCCN1"
result = "> 100 µM"


The compound listed as CN(C)CC(C(=O)c1ccccc1)c1ccccc1 (stereo not given) shows TGI equal to 27.1 µM

The compound listed as "COc1cc2cc3c4c(cc(OC)c(OC)c4c2cc1OC)CCN3C(=O)CCCC(=O)O" shows TGI equal to > 100 µM

The compound listed as "COc1ccc(/C=C2/C(=O)N(C(=O)c3ccccc3O)N=C2C)cc1OC" shows TGI equal to > 100 µM

The compound listed as "COc1cc(/C=C/C(=O)C(=Cc2ccc(F)c(F)c2)C(=O)/C=C/c2ccc(O)c(OC)c2)ccc1O" shows TGI equal to 18.3 µM

The compound listed as "COc1ccc2c(c1)/C(=C(\C(Cl)=C(\Cl)N1CCCCC1)[N+](=O)[O-])N2" shows TGI equal to > 100 µM

====

System: CCRF-CEM leukemia
A correct response names exactly one class from active, inactive

Record excerpt, results attached:
[[record]]
sample_smiles = "O=C1C2=C(C(=O)c3c(O)ccc(O)c31)N(c1ccc(N3CCOCC3)nc1)Cc1ccccc1O2"
study_target = "CCRF-CEM leukemia"
group_label = "active"

[[record]]
sample_smiles = "CC1=C(N2CC2)C(=O)C(CO)=C(N2CC2)C1=O"
study_target = "CCRF-CEM leukemia"
group_label = "active"

[[record]]
sample_smiles = "CCOP(=O)(CCP(=O)(OCC)OCC)OCC.C[CH2][Sn]([Cl])([Cl])[CH2]C"
study_target = "CCRF-CEM leukemia"
group_label = "inactive"

[[record]]
sample_smiles = "CCCCCCN(CCCCCC)CCCNc1nccc2ccccc12"
study_target = "CCRF-CEM leukemia"
group_label = "inactive"

[[record]]
sample_smiles = "COc1cccc(Nc2nc(NNC(=O)Cc3ccccc3)nc(NNC(=O)c3ccncc3)n2)c1"
study_target = "CCRF-CEM leukemia"
group_label = "inactive"


Problem: Could you please tell me the result logged for "O=S(=O)(NCCNc1nccc(-c2c(-c3cccc(O)c3)nc3sccn23)n1)c1ccc(F)cc1" in this assay?
Result: inactive

Problem: Could you please tell me the result logged for "COc1cc(CNC(=O)/C=C/C=C/c2ccc3c(c2)OCO3)ccc1OCc1cn(-c2ccc(Cl)c(Cl)c2)nn1" in this assay?
Result: inactive

Problem: Could you please tell me the result logged for "COC1=C(OC)C(=O)C(/C=C(\C)C(=O)O)=C(C)C1=O" in this assay?
Result: inactive

====

This section lists GI50 readings for MALME-3M melanoma.

[[record]]
compound = "C=CCN1C(=O)/C(=c2\\sc3n(c2=O)C2C(NN=3)N(CC)C(=O)N2CC)c2ccccc21 (centres undefined)"
result = "1.28 µM"

[[record]]
compound = "O=C1Cc2cc(CCn3ccnc3)c(Cl)cc2N1"
result = "79.5 µM"

[[record]]
compound = "COC1=C(OC)C(=O)C(/C=C(\\C)C(=O)O)=C(C)C1=O"
result = "> 100 µM"


Entry "COc1cc(/C=C/C(=O)C(=Cc2ccc(F)c(F)c2)C(=O)/C=C/c2ccc(O)c(OC)c2)ccc1O" : GI50 on MALME-3M melanoma = 5.61 µM

====

Catalogue of TGI values
Tested on: LOX IMVI melanoma
PROTOCOL SUMMARY: NCI tumour cell line growth inhibition, 48 h

Below are worked cases with known answers.
[[record]]
compound = "O=C(Nc1ccc(Cl)cc1)c1cc(S(=O)(=O)Nc2n[nH]c(=O)[nH]2)c(SSc2cc(Cl)c(C(=O)Nc3ccc(Cl)cc3)cc2S(=O)(=O)Nc2n[nH]c(=O)[nH]2)cc1Cl"
study_target = "LOX IMVI melanoma"
result = "> 100 µM"

[[record]]
compound = "COc1ccc2nc(-c3ccc(OC(=O)N(C)C)cc3)cn2c1"
study_target = "LOX IMVI melanoma"
result = "> 100 µM"

[[record]]
compound = "CCOC(=O)C(SCCO)C(C(=O)OCC)n1ccc(N)nc1=O (stereo not given)"
study_target = "LOX IMVI melanoma"
result = "> 100 µM"

[[record]]
compound = "CCN(CC)CCNc1ccc([N+](=O)[O-])c2nc3ccccc3c(N)c12"
study_target = "LOX IMVI melanoma"
result = "1.61 µM"


API: the following record is the query input.
Entry "Cc1ccc2nc3c(C(=O)NCCN(C)C)cccc3cc2c1" : TGI on LOX IMVI melanoma = 6.4 µM

====

Tested on: A549 NSCLC
PROTOCOL SUMMARY: NCI tumour cell line growth inhibition, 48 h
Catalogue of TGI values

[[record]]
compound = "COc1cc2cc3c4c(cc(OC)c(OC)c4c2cc1OC)CCN3C(=O)CCCC(=O)O"
result = "> 100 µM"

[[record]]
compound = "Oc1c(C(O)(c2ccccc2)c2ccc3ccccc3c2O)ccc2ccccc12"
result = "30.4 µM"

[[record]]
compound = "COC(=O)C12CCC(C(=O)OC)(Cc3c(c4ccccc4n3S(=O)(=O)c3ccccc3)C1)C2=O (stereo unspecified)"
result = "> 100 µM"


The compound listed as C#CCNC(=O)CCC(N)C(=O)O (stereo unspecified) shows TGI equal to > 100 µM

The compound listed as COc1cc2c(cc1OCCCCNC(=O)c1cc3ccccc3[nH]1)N=CC1CCCN1C2=O (stereo unspecified) shows TGI equal to > 100 µM

The compound listed as "CC(C)c1cc(C(C)C)c(S(=O)(=O)NN)c(C(C)C)c1" shows TGI equal to > 100 µM

The compound listed as "Cn1c(-c2ccccc2)cc(-c2ccc3c(c2)OCO3)c1-c1cccs1" shows TGI equal to > 100 µM

The compound listed as C=C1C(=O)OC2CCCCC3OC3C12 (stereo unspecified) shows TGI equal to 40.2 µM

The compound listed as COc1cc2c(cc1OC)C(CCc1ccc(Cl)cc1)N(C)CC2 (stereo unspecified) shows TGI equal to > 100 µM

The compound listed as "CCSC1(SCC)CCN(C=NC(C)(C)C)C1" shows TGI equal to > 100 µM

The compound listed as "COC(=O)[C@]12CC[C@@H](C)[C@H](C)[C@@H]1C1=CC[C@@H]3[C@@]4(C)C[C@@H](OC(=O)c5ccco5)[C@H](O)[C@@](C)(CO)[C@@H]4[C@H](O)C[C@@]3(C)[C@]1(C)CC2" shows TGI equal to 7.05 µM

The compound listed as "CCCCCCN(CCCCCC)CCCNc1nccc2ccccc12" shows TGI equal to 7.98 µM

The compound listed as "CC(=O)NNc1nc(C)c(C(=O)NNC(=O)C(=O)Nc2ccc(C)c(C)c2)s1" shows TGI equal to > 100 µM

The compound listed as "Nc1nc(N)c2cc(CNc3ccc(Cl)c(Cl)c3)ccc2n1" shows TGI equal to 1.34 µM

The compound listed as "O=c1oc2ncccc2n1Cc1ccc([N+](=O)[O-])cc1" shows TGI equal to > 100 µM

The compound listed as "Nn1c(CNc2ccc(-c3nnc(Nc4ccc(Cl)cc4)n3N)cc2)nnc1Nc1ccc(Cl)cc1" shows TGI equal to > 100 µM
